Value source: patent US20150329594A1

Molecular target: human complement protein C3 (human, UniProt P01024 23-1663)
Sequence (P01024 23-1663 limits assumed): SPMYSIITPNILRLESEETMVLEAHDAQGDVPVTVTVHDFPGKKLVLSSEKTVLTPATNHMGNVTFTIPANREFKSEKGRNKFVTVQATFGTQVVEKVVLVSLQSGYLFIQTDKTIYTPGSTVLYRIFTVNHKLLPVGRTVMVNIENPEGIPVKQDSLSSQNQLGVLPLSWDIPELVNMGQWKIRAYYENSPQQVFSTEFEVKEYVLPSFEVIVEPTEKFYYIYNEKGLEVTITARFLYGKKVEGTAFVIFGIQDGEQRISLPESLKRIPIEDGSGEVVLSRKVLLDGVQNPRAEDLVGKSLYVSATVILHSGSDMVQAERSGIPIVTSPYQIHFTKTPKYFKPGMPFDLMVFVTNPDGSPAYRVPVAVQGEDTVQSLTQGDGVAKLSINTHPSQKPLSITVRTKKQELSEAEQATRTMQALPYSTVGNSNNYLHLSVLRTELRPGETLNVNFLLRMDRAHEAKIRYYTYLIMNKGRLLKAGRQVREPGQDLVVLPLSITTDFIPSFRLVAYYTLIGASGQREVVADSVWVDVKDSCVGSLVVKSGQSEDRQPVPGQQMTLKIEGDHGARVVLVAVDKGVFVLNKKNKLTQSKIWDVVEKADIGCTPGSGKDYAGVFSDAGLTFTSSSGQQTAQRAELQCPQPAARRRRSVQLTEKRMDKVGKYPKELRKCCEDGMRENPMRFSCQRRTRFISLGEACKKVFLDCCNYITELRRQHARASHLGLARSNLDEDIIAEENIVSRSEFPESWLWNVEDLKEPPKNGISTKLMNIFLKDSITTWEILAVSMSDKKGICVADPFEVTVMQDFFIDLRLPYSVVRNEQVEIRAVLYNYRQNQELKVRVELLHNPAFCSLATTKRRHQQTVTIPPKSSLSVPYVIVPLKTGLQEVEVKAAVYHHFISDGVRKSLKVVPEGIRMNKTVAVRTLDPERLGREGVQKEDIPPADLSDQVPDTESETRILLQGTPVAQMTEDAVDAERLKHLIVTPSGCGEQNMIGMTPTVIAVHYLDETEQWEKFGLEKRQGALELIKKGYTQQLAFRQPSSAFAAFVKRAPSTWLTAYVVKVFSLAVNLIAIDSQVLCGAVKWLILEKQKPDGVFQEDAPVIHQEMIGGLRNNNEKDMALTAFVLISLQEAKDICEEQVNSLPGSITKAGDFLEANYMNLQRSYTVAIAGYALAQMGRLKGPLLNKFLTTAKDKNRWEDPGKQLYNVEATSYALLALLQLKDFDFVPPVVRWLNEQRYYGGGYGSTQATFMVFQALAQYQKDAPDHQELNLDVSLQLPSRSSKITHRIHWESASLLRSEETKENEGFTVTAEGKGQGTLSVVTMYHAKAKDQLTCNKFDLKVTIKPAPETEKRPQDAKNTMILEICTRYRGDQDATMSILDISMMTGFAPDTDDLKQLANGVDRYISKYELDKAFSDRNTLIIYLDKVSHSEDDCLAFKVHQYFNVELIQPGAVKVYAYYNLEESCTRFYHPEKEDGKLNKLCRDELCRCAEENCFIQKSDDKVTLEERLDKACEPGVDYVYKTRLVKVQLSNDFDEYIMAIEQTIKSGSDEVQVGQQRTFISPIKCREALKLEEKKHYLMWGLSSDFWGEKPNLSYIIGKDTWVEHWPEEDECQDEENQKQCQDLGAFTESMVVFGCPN
Test: cell-based or functional assay
Bridge positions count the residues as written; N and C are the ends. Square brackets hold non-standard residues; d marks the D form. Nal = 1-naphthylalanine or 2-naphthylalanine; Sea = not defined here
recorded-metric: C5b-9 ELISA IC50
Just the number plus its unit, please.

Use the examples below as a reference point.
INSERT INTO assay_data (binder, result) VALUES
  ('Ac-NRLCV[Nal]QDWG[Nal]HRCT-NH2 (disulfide 4-14; not fully specified; printed as Ac-NRLCV{Nal}QDWG{Nal}HRCT-NH2) [Peptide 4.7, Ac-NR-LCV{Nal}QDWG{Nal}HRCT-NH2]', '1400 nM'),
  ('Ac-ERICV[Nal]QDWG[Nal]HRCT-NH2 (disulfide 4-14; not fully specified; printed as Ac-ERICV{Nal}QDWG{Nal}HRCT-NH2) [Peptide 4.5, Ac-ER-ICV{Nal}QDWG{Nal}HRCT-NH2]', '2400 nM'),
  ('Ac-NRLCVWQDWG[Nal]HRCT-NH2 (disulfide 4-14; not fully specified; printed as Ac-NR-LCVWQDWG{Nal}HRCT-NH2) [Peptide 4.3, Ac-NR-LCVWQDWG{Nal}HRCT-NH2]', '1200 nM'),
  ('Ac-ICVWQDWG[Sea]HRCT-NH2 (disulfide 2-12; reading uncertain; also: printed as Ac-ICVWQDWG{Sea}HRCT-NH2) [Peptide 2.5, Ac-ICVWQDWG{Sea}HRCT-NH2]', '700 nM'),
  ('Ac-ERICVWQDWGAHRCT-NH2 (disulfide 4-14; SMILES CC[C@H](C)[C@H](NC(=O)[C@H](CCCNC(=N)N)NC(=O)[C@H](CCC(=O)O)NC(C)=O)C(=O)N[C@H]1CSSC[C@@H](C(=O)N[C@H](C(N)=O)[C@@H](C)O)NC(=O)[C@H](CCCNC(=N)N)NC(=O)[C@H](Cc2c[nH]cn2)NC(=O)[C@H](C)NC(=O)CNC(=O)[C@H](Cc2c[nH]c3ccccc23)NC(=O)[C@H](CC(=O)O)NC(=O)[C@H](CCC(N)=O)NC(=O)[C@H](Cc2c[nH]c3ccccc23)NC(=O)[C@H](C(C)C)NC1=O) [Peptide 3.1, Ac-ER-ICVWQDWGAHRCT-NH2]', '500 nM');

Give reported C5b-9 ELISA IC50 value for Ac-NNLCV[Nal]QDWG[Nal]HRCT-NH2 (disulfide 4-14; not fully specified; printed as Ac-NNLCV{Nal}QDWG{Nal}HRCT-NH2) [Peptide 4.6, Ac-NN-LCV{Nal}QDWG{Nal}HRCT-NH2] 2300 nM

Determine its reported C5b-9 ELISA IC50: Ac-RSICVWQDWG[Nal]HRCT-NH2 (disulfide 4-14; not fully specified; printed as Ac-RS-ICVWQDWG{Nal}HRCT-NH2) [Peptide 4.4, Ac-RS-ICVWQDWG{Nal}HRCT-NH2] 2000 nM
